target: full-length hepatitis C viral protein NS3•4A (Hepatitis C virus genotype 1a); construct: hexa-histidine (N); made in house; host or cells: Sf9 insect cells (baculovirus, pVL1392); assay: biochemical; set-up: species or system HCV sub-type strain 1a; settings: read-out: Enzyme Assay 2 (HCV NS3 Peptide Cleavage Assay) activity; apparent Ki class
pKi: −log10 of the molar value.
measured.quantity: pKi

INPUT: Report its pKi with full-length hepatitis C viral protein NS3•4A (Hepatitis C virus genotype 1a) as the test system: CNC(=O)C(=O)[C@H](CC1CC1)NC(=O)[C@@H]1C[C@]2(CC(c3cccc(Cl)c3)=NO2)CN1C(=O)[C@@H](NC(=O)CC1CC2CCC1C2)C(C)(C)C (some centres unmarked) [Compound 777]
OUTPUT: > 7.00

INPUT: Report its pKi with full-length hepatitis C viral protein NS3•4A (Hepatitis C virus genotype 1a) as the test system: CCC[C@H](NC(=O)[C@@H]1C[C@]2(CC(c3cccc(Cl)c3)=NO2)CN1C(=O)[C@@H](NC(=O)CC1CCC(C)(O)CC1)C(C)(C)C)C(=O)C(=O)NC1CC1 (some centres unmarked) [Compound 575]
OUTPUT: > 7.00

====

Reported pKi values follow for various molecules
target: full-length hepatitis C viral protein NS3•4A (Hepatitis C virus genotype 1a); construct: hexa-histidine (N); made in house; host or cells: Sf9 insect cells (baculovirus, pVL1392); experiment: biochemical; design: species or system HCV sub-type strain 1a; conditions: Enzyme Assay 2 (HCV NS3 Peptide Cleavage Assay) activity, apparent Ki class
pKi: −log10 of the molar value.

{"compound.string": "CCC[C@H](NC(=O)[C@@H]1C[C@]2(CC(c3cccc(Cl)c3)=NO2)CN1C(=O)[C@@H](NC(=O)CC1CCCCC1)C(C)(C)C)C(=O)C(=O)N1CCOCC1", "pKi": "< 6.30"}
{"compound.string": "CNC(=O)C(=O)[C@H](CC1CC1)NC(=O)[C@@H]1C[C@]2(CC(c3cccc(Cl)c3)=NO2)CN1C(=O)[C@@H](NC(=O)[C@H]1C[C@@H]1c1cccs1)C(C)(C)C", "pKi": "> 7.00"}

# input for lookup
INPUT: Report its pKi with full-length hepatitis C viral protein NS3•4A (Hepatitis C virus genotype 1a) as the test system: `CCC[C@H](NC(=O)[C@@H]1C[C@]2(CC(c3cc(Cl)ccc3OC)=NO2)CN1C(=O)[C@@H](NC(=O)CC1CCCCC1)C(C)(C)C)C(=O)C(=O)NC`
OUTPUT: > 7.00

====

Reported Ki values follow for various molecules
molecular target: full-length hepatitis C viral protein NS3•4A (Hepatitis C virus genotype 1a, UniProt P27958); construct: hexa-histidine (N); made in house; host or cells: Sf9 insect cells (baculovirus, pVL1392); assay: biochemical; parameters: species or system HCV sub-type strain 1a; conditions: Enzyme Assay 2 (HCV NS3 Peptide Cleavage Assay) activity, apparent Ki class

Some solved cases for reference:
{"molecule": "CCC[C@H](NC(=O)[C@@H]1C[C@]2(CC(c3cccc(Cl)c3)=NO2)CN1C(=O)[C@@H](NC(=O)CC1C[C@@H](C)O[C@@H](C)C1)C(C)(C)C)C(=O)C(=O)NC1CC1 (some centres unmarked)", "reported.result": "< 100 nM"}
{"molecule": "CCC[C@H](NC(=O)[C@@H]1C[C@]2(CC(c3ccc(NC)c(Cl)c3)=NO2)CN1C(=O)[C@@H](NC(=O)CC1CCCCC1)C(C)(C)C)C(=O)C(=O)NC1CC1", "reported.result": "< 100 nM"}
{"molecule": "CCC[C@H](NC(=O)[C@@H]1C[C@]2(CC(c3cccc(Cl)c3)=NO2)CN1C(=O)[C@@H](NC(=O)CC1CCCCC1)C(C)(C)C)C(=O)C(=O)NCc1ccncc1", "reported.result": "100 to 500 nM"}
{"molecule": "CCC[C@H](NC(=O)[C@@H]1C[C@]2(CC(c3cccc(Cl)c3)=NO2)CN1C(=O)[C@@H](NC(=O)CC1CCCCC1)C(C)(C)C)C(=O)C(=O)N1CC(OCC2CCOC2)C1 (some centres unmarked)", "reported.result": "< 100 nM"}

# input for lookup
INPUT: Could you please provide reported Ki for `CCC[C@H](NC(=O)[C@@H]1C[C@]2(CC(c3cc(C)c(OC)c(Cl)c3)=NO2)CN1C(=O)[C@@H](NC(=O)CC1CCCCC1)C(C)(C)C)C(=O)C(=O)NC` ? Thanks!
OUTPUT: < 100 nM

====

Reported Ki values follow for various compounds
molecular target: HCV NS3 protease domain (Hepatitis C virus genotype 1b, UniProt Q9WMX2); construct: The first 181 amino acids of NS3 (residues 1027-1207 of the viral polyprotein); hexa-histidine (C); made in house; host or cells: E. coli BL21/DE3 pLysS; assay: biochemical; details: Enzyme Assay 1 (HCV NS3 Protease Domain Peptide Cleavage Assay) activity, apparent Ki class

Some solved cases for reference:
{"compound": "CCC[C@H](NC(=O)[C@@H]1C[C@@]2(CC(c3cc(C)c(OC)c(Cl)c3)=NO2)CN1C(=O)[C@@H](NC(=O)CC1CCCCC1)C(C)(C)C)C(=O)C(=O)NC1CC1", "target": "HCV NS3 protease domain (Hepatitis C virus genotype 1b, UniProt Q9WMX2)", "reported.result": "100 to 500 nM"}
{"compound": "CCC[C@H](NC(=O)[C@@H]1C[C@]2(CC(c3ccc(Cl)c(C)c3)=NO2)CN1C(=O)[C@@H](NC(=O)CC1CCOCC1)C(C)(C)C)C(=O)C(=O)NC1CC1", "target": "HCV NS3 protease domain (Hepatitis C virus genotype 1b, UniProt Q9WMX2)", "reported.result": "100 to 500 nM"}
{"compound": "CCC[C@H](NC(=O)[C@@H]1C[C@]2(CC(c3ccc(Cl)c(Cl)c3)=NO2)CN1C(=O)[C@@H](NC(=O)CC1CCOCC1)C(C)(C)C)C(=O)C(=O)NC1CC1", "target": "HCV NS3 protease domain (Hepatitis C virus genotype 1b, UniProt Q9WMX2)", "reported.result": "100 to 500 nM"}
{"compound": "CC(C)(C)[C@H](NC(=O)CC1CCCCC1)C(=O)N1C[C@@]2(CC(c3cccc(Cl)c3)=NO2)C[C@H]1C(=O)NC(CC1CCC1)C(=O)C(N)=O (some centres unmarked)", "target": "HCV NS3 protease domain (Hepatitis C virus genotype 1b, UniProt Q9WMX2)", "reported.result": "< 100 nM"}

INPUT: Could you please provide reported Ki for `CCC[C@H](NC(=O)[C@@H]1C[C@]2(CC(c3cccc(Cl)c3)=NO2)CN1C(=O)[C@@H](NC(=O)OCC)C(C)(C)C)C(=O)C(=O)NC1CC1` ? Thanks!
OUTPUT: 100 to 500 nM

INPUT: Could you please provide reported Ki for `CCC[C@H](NC(=O)[C@@H]1C[C@]2(CC(c3cccc(Cl)c3)=NO2)CN1C(=O)[C@@H](NC(=O)CCC(=O)O)C(C)(C)C)C(=O)C(=O)NC1CC1` ? Thanks!
OUTPUT: 100 to 500 nM

INPUT: Could you please provide reported Ki for `CCC[C@H](NC(=O)[C@@H]1C[C@]2(CC(c3cc(Cl)c(OC)cc3OC)=NO2)CN1C(=O)OCc1ccccc1Cl)C(=O)C(=O)NC1CC1` ? Thanks!
OUTPUT: > 500 nM

INPUT: Could you please provide reported Ki for `CCC[C@H](NC(=O)[C@@H]1C[C@]2(CC(c3ccccc3)=NO2)CN1C(=O)[C@@H](NC(=O)[C@@H](NC(=O)c1cnccn1)C1CCCCC1)C(C)(C)C)C(=O)C(=O)NC1CC1` ? Thanks!
OUTPUT: < 100 nM

INPUT: Could you please provide reported Ki for `CCC[C@H](NC(=O)[C@@H]1C[C@]2(CC(c3ccc4c(c3)OCO4)=NO2)CN1C(=O)c1ccc[nH]1)C(=O)C(=O)NC1CC1` ? Thanks!
OUTPUT: > 500 nM

INPUT: Could you please provide reported Ki for `CCC[C@H](NC(=O)[C@@H]1C[C@]2(CC(c3ccccc3Oc3ccc(OC)cc3)=NO2)CN1C(=O)[C@@H](NC(=O)OCc1ccccc1)C(C)(C)C)C(=O)C(=O)NC1CC1` ? Thanks!
OUTPUT: > 500 nM

INPUT: Could you please provide reported Ki for CCC[C@H](NC(=O)[C@@H]1CC2(CC(c3cccc(Cl)c3)=NO2)CN1C(=O)[C@H](Cc1ccc(O)cc1)NC(C)=O)C(=O)C(=O)NC1CC1 (some centres unmarked) ? Thanks!
OUTPUT: 100 to 500 nM

====

biological target: full-length hepatitis C viral protein NS3•4A (Hepatitis C virus genotype 1a, UniProt P27958); construct: hexa-histidine (N); made in house; host or cells: Sf9 insect cells (baculovirus, pVL1392); experiment: biochemical; parameters: species or system HCV sub-type strain 1a; details: Enzyme Assay 2, HCV NS3 Peptide Cleavage Assay, apparent Ki
pKi: −log10 of the molar value.
Reported pKi values follow for various compounds

{"compound.string": "CCC[C@H](NC(=O)[C@@H]1C[C@]2(CC(c3cccc(Cl)c3)=NO2)CN1C(=O)[C@@H](NC(=O)[C@@H]1C[C@H]1C(C)C)C(C)(C)C)C(=O)C(=O)NC1CC1", "measured.quantity": "pKi", "reported.result": "> 7.00"}

INPUT: Could you please provide reported pKi for `CNC(=O)C(=O)[C@H](CC1CC1)NC(=O)[C@@H]1C[C@]2(CC(c3cccc(Cl)c3)=NO2)CN1C(=O)[C@@H](NC(=O)[C@@H]1CC12CCCCC2)C(C)(C)C` ? Thanks!
OUTPUT: > 7.00

INPUT: Could you please provide reported pKi for `CNC(=O)C(=O)[C@H](CC1CC1)NC(=O)[C@@H]1C[C@]2(CC(c3cccc(Cl)c3)=NO2)CN1C(=O)[C@@H](NC(=O)[C@@H]1C[C@H]1c1ccccc1OC)C(C)(C)C` ? Thanks!
OUTPUT: > 7.00
